Entries annotated with measured selective drug sensitivity score
tested on: P12-ICHIKAWA; assay: selective drug sensitivity score (sDSS, relative to normal bone marrow) (sDSS (score)); higher = more potent and effective on the cell line relative to normal bone marrow cells; settings: 72 h;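 note: ALL cell lines in 384-well plates, five doses spanning 10,000-fold, each plate scaled between vehicle and 100 µmol/L benzalkonium chloride controls, sDSS an adapted area-under-curve metric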
// return a plain number; no unit text

(Q) Input CN1CCC(CNc2ccc3ncc(-c4cccc(OC(F)(F)F)c4)n3n2)CC1 [SGI-1776] (top concentration 10000 nM) , output reported selective drug sensitivity score.
(A) -2.98

(Q) Input C=CC[C@@H]1/C=C(\C)C[C@H](C)C[C@H](OC)[C@H]2O[C@@](O)(C(=O)C(=O)N3CCCC[C@H]3C(=O)O[C@H](/C(C)=C/[C@@H]3CC[C@@H](O)[C@H](OC)C3)[C@H](C)[C@@H](O)CC1=O)[C@H](C)C[C@@H]2OC [Tacrolimus] (top concentration 10000 nM) , output reported selective drug sensitivity score.
(A) 1.58

(Q) Input CCOc1ccn(-c2ccc(F)cc2)c(=O)c1C(=O)Nc1ccc(Oc2ccnc(N)c2Cl)c(F)c1 (top concentration 2500 nM) , output reported selective drug sensitivity score.
(A) 3

###

tested on: SEM cells; test: selective drug sensitivity score (sDSS, relative to normal bone marrow) (sDSS (score)); higher = more potent and effective on the cell line relative to normal bone marrow cells; conditions: 72 h
Assay Endpoint: selective drug sensitivity score
// return a plain number; no unit text

(Q) Input CN1CCN(C2CCC(n3cc(-c4ccc(Oc5ccccc5)cc4)c4c(N)ncnc43)CC2)CC1 (stereo unspecified) (top concentration 10000 nM) , output reported selective drug sensitivity score.
(A) 9.62

(Q) Input CN1CCC(CNc2ccc3ncc(-c4cccc(OC(F)(F)F)c4)n3n2)CC1 [SGI-1776] (top concentration 10000 nM) , output reported selective drug sensitivity score.
(A) 6.92

###

system: JURKAT; experiment: selective drug sensitivity score (sDSS, relative to normal bone marrow) (sDSS (score)); higher = more potent and effective on the cell line relative to normal bone marrow cells; conditions: 72 h
Threshold rule: selective drug sensitivity score greater than or equal to -0.02 is class 1; below that, class 0.

Answered examples (5):
| Compound | Group |
| --- | --- |
| Nc1nc(Nc2ccc3c(c2)CC[C@@H](N2CCCC2)CC3)nn1-c1cc2c(nn1)-c1ccccc1CCC2 [BGB324] (top concentration 10000 nM) | class 1 |
| CN1CCN(C2CCC(n3cc(-c4ccc(Oc5ccccc5)cc4)c4c(N)ncnc43)CC2)CC1 (configuration not stated) (top concentration 10000 nM) | class 1 |
| C[C@@H]1CCN(C(=O)CC#N)C[C@@H]1N(C)c1ncnc2[nH]ccc12 [Tofacitinib] (top concentration 5000 nM) | class 0 |
| O=C(Nc1ccc2[nH]nc(-c3ccncc3)c2c1)[C@@H]1CCN(CC(=O)N2CCN(c3ccc(-c4ncccn4)cc3)CC2)C1 (top concentration 10000 nM) | class 0 |
| Cc1cc(Nc2nc(N[C@@H](C)c3ncc(F)cn3)ncc2Cl)[nH]n1 [AZD1480] (top concentration 1000 nM) | class 0 |

(Q) Hello, I need to know if CC(C)Nc1cc(-c2c[nH]c(C(=O)N[C@H](CO)c3cccc(Cl)c3)c2)c(Cl)cn1 [Ulixertinib] (top concentration 10000 nM) has measured selective drug sensitivity score not below -0.02. Thanks!
(A) class 0

(Q) Hello, I need to know if COc1cc2c(cc1-c1c(C)noc1C)ncc1[nH]c(=O)n([C@H](C)c3ccccn3)c12 [I-BET151] (top concentration 10000 nM) has measured selective drug sensitivity score not below -0.02. Thanks!
(A) class 1

(Q) Hello, I need to know if CNC(=O)c1cccc(-c2ccc3c(N4CCOC[C@@H]4C)nc(N4CCOC[C@@H]4C)nc3n2)c1 [Vistusertib] (top concentration 10000 nM) has measured selective drug sensitivity score not below -0.02. Thanks!
(A) class 1

(Q) Hello, I need to know if CC(O)(CS(=O)(=O)c1ccc(F)cc1)C(=O)Nc1ccc(C#N)c(C(F)(F)F)c1 (configuration not stated) [Bicalutamide] (top concentration 10000 nM) has measured selective drug sensitivity score not below -0.02. Thanks!
(A) class 1

(Q) Hello, I need to know if CC(C)[C@H]1C(=O)N[C@@H](CCCNC(=N)N)C(=O)NCC(=O)N[C@@H](CC(=O)O)C(=O)N[C@H](Cc2ccccc2)C(=O)N1C [Cilengitide] (top concentration 10000 nM) has measured selective drug sensitivity score not below -0.02. Thanks!
(A) class 1

(Q) Hello, I need to know if Cc1c(-c2c(-c3ccc(F)o3)sc3ncnc(O[C@H](Cc4ccccc4OCc4ccnn4CC(F)(F)F)C(=O)O)c23)ccc(OCCN2CCN(C)CC2)c1Cl (top concentration 1000 nM) has measured selective drug sensitivity score not below -0.02. Thanks!
(A) class 0
